Data provenance is patent US8546414B2.

# target_or_test_system: NaV1.3 (Homo sapiens, UniProt Q9NY46)
# Construct: expressed in transfected cells; host or cells: HEK293
# Sequence (Q9NY46 whole entry): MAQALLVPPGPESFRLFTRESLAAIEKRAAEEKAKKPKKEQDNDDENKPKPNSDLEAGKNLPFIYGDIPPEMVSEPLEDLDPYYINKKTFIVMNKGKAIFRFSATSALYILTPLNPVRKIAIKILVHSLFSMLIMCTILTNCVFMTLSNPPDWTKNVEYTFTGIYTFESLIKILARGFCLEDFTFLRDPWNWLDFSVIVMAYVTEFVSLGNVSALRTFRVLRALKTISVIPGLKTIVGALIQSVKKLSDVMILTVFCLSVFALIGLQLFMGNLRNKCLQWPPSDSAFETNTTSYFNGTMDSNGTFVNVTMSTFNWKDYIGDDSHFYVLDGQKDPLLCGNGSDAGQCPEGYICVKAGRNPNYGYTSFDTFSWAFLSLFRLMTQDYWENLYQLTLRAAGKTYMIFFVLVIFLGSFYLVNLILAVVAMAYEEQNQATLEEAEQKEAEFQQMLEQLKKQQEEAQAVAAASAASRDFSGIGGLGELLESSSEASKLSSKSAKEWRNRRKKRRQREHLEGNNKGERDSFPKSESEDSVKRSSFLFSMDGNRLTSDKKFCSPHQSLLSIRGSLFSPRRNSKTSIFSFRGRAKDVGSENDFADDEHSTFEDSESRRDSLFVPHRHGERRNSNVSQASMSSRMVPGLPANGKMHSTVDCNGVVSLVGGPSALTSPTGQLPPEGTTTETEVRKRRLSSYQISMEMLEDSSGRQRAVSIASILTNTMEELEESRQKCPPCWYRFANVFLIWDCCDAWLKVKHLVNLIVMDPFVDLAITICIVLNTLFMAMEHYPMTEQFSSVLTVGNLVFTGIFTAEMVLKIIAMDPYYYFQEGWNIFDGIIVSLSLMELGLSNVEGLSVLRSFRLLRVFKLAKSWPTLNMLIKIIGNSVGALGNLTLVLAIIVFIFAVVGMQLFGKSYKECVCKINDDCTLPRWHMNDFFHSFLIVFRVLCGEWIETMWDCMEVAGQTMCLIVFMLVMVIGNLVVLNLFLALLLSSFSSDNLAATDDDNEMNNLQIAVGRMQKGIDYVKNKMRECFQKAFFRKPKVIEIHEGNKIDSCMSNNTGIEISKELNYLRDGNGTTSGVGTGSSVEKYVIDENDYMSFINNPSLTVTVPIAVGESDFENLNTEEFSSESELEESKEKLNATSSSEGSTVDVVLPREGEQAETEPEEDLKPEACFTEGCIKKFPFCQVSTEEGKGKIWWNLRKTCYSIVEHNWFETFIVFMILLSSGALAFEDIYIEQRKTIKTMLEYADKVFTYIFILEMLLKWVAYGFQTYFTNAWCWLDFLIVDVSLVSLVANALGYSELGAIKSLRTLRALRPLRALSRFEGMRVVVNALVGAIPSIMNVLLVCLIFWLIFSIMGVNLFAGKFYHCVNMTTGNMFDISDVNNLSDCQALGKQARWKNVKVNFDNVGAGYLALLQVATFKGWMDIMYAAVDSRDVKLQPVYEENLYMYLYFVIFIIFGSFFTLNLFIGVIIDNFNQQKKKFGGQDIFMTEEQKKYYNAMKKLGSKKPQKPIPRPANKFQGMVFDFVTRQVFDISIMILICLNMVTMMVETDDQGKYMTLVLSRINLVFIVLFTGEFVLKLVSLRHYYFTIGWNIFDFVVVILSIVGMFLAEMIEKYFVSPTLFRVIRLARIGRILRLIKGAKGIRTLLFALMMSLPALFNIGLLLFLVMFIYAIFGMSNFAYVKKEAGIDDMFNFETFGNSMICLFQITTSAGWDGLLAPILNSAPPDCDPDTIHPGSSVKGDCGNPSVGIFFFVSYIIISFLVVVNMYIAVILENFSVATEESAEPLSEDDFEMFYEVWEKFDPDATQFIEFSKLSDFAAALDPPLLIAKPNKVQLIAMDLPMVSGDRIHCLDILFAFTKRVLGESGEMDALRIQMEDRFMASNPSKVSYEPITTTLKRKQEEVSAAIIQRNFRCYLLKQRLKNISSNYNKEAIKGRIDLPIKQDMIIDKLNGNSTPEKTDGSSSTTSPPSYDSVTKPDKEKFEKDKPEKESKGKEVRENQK
# assay_info: VIPR optical membrane potential assay with electrical stimulation, NaV1.3
# Type: cell-based
# cond: Table 9, NaV 1.3 receptors
reported_property: IC50

Task: Recall and state the measured IC50 for CC1COc2ccccc2N1C(=O)c1cnc(N2CCOCC2)nc1-c1ccccc1F (centres unmarked) [compound 84] .
Result: > 10 µM

Task: Recall and state the measured IC50 for COCCNc1ncc(C(=O)N2CC(C)CC(C)C2)c(-c2cccc(C)c2)n1 (centres unmarked) [compound 325] .
Result: > 10 µM

Task: Recall and state the measured IC50 for Cc1cccc(-c2nc(NC3CC4CC(C3C)C4(C)C)ncc2C(=O)N2CCOCC2)c1 (centres unmarked) [compound 288] .
Result: > 10 µM

Task: Recall and state the measured IC50 for CC(=O)NCCNc1ncc(C(=O)N2CCC(C)CC2)c(-c2ccc(-c3ccccc3)cc2)n1 [compound 251] .
Result: > 10 µM
